test system: NOMO1; assay: cell viability relative to DMSO control; higher = less cytotoxic; conditions: RPMI 5 mM glucose + 10% dialyzed FBS; 48 h; 0.00234 µM
Could you please report measured cell viability for the items listed next?
Numbers only, in %.

Known results for compounds:
Reported cell viability ( O=C1C[C@@H](c2ccc(O)cc2)Oc2cc(O)cc(O)c21 ) = 108

Lab note: measured cell viability of CC(=O)O[C@@]1(CC[C@H]2[C@@H]3\C=C(C)/C4=C/C(=O)CC[C@]4(C)[C@H]3CC[C@]12C)C(C)=O was 92.1

The value of cell viability measured for the compound NC(=O)c1ncn([C@@H]2O[C@H](CO)[C@@H](O)[C@H]2O)n1 turned out to be 110

Measured cell viability of O=C(Nc1cccc(Nc2ncc(Br)c(NCCc3cnc[nH]3)n2)c1)N1CCCC1 : 106

Recorded cell viability (compound CC1=CC=CC=C1CN2C(=O)C/3=C(/CCN(CC4=CC=CC=C4)C3)N\5CC\N=C25 ): 118

In plain terms, N=C(N)NC(=O)c1nc(Cl)c(N)nc1N has a documented cell viability of 134

Below are some compounds; for each one, tell me its cell viability.
1. CC1(C)C(=O)N(CCN2CCC(C(=O)c3ccc(F)cc3)CC2)c2ccccc21
2. [NH2][Pt]([NH2])([Cl])[Cl]
3. CCOc1cc(N)c(Cl)cc1C(=O)NCC1CN(Cc2ccc(F)cc2)CCO1 (stereo unspecified)

Reply:
120
90.6
115

Items follow; give cell viability for each.
1. CO[C@H]1C[C@@H]2CC[C@@H](C)[C@@](O)(O2)C(=O)C(=O)N2CCCC[C@H]2C(=O)O[C@H]([C@H](C)C[C@@H]2CC[C@@H](OC(=O)C(C)(CO)CO)[C@H](OC)C2)CC(=O)[C@H](C)/C=C(\C)[C@@H](O)[C@@H](OC)C(=O)[C@H](C)C[C@H](C)/C=C/C=C/C=C/1C
2. COc1cc2c(Oc3ccc(NC(=O)C4(C(=O)Nc5ccc(F)cc5)CC4)cc3F)ccnc2cc1OCCCN1CCOCC1
3. OCc1ccc(-c2nn(Cc3ccccc3)c3ccccc23)o1
4. CC1(C)OC2CC3C4CC(F)C/5=C/C(=O)/C=C\C5(C)C4C(O)CC3(C)[C@@]2(O1)C(=O)CO (stereo partly specified)

Reply:
[115, 75.3, 105, 113]

---

tested on: P12-Ichikawa; experiment: cell viability relative to DMSO control; higher = less cytotoxic; conditions: RPMI 5 mM glucose + 10% dialyzed FBS; 48 h; 0.0211 µM
Answer each item with its documented cell viability.
Give bare numbers, in %.

Example entries and their recorded answers appear below.
Sure, the documented cell viability for Cc1cccc(C)c1OCC(=O)N[C@@H](Cc1ccccc1)[C@@H](O)C[C@H](Cc1ccccc1)NC(=O)[C@H](C(C)C)N1CCCNC1=O is 88.7

// sample C[N+]1(C)[C@@H]2C[C@@H](OC(=O)[C@H](CO)c3ccccc3)C[C@H]1[C@@H]1O[C@@H]12.[Br-] , its cell viability was 90.7

cell viability measured on CCCCNc1cc(C(=O)O)cc([S+](N)(=O)[O-])c1Oc1ccccc1 = 115

Note to self: cell viability recorded for Oc1ccc(C2CCN(c3ccnc4ccccc34)CC2)cc1O was 110

Kindly note the recorded cell viability for Cc1ncc(OC[C@@]2(c3cccc(F)c3)C[C@H]2C(=O)Nc2ccc(F)cn2)c(C)n1 , which is 113

# cell viability (compound: O=C(NC[C@H](O)CN1CCc2ccccc2C1)c1cc(NC2COC2)ncn1 ) is 87.9

According to the records, this compound CC(C)Nc1cc(C(F)(F)F)cc2nc(NC(=O)c3cccnc3)nn12 displays cell viability of 113

cell viability for CC(=O)Nc1ccc([C@H](C)C(=O)Nc2ncc(C(C)C)s2)cc1 is 99.5

Now examine the next entry.
Lookup result for N=C(N)NC(=O)c1nc(Cl)c(N)nc1N ; measured cell viability: 124
